- Tested on: KM12 colon
- run-description: NCI tumour cell line growth inhibition, 48 h
Where a SMILES comes first, the peptide text is derived from it. The star is where a group is joined. Palmitoyl = CCCCCCCCCCCCCCCC(=O)*
# TGI binned as L = under 10 µM, M = from 10 µM up to 30 µM, H = 30 µM and over

| molecule | assigned-class |
| --- | --- |
| c1ccc(CCc2cccnc2)nc1 | H |
| COC(=O)c1cc2c(c3c1CC(Cc1ccccc1)C3=O)CCC2 (stereo not drawn) | H |
| C/C(=C\c1cnc(C)s1)[C@@H]1C[C@@H]2O[C@@H]2CCC[C@H](C)[C@H](O)[C@@H](C)C(=O)C(C)(C)[C@@H](O)CC(=O)O1 | H |
| COc1ccc(-c2nc(/C=C3\SC(=NCc4ccccc4)NC3=O)c3ccccn23)cc1 | L |
| COC1C(N)C(OC2C(Oc3cccc4c(O)c5c(=O)oc6ccc(C)c7c(=O)oc(c34)c5c67)OC(C)C(O)C2(C)O)OC(C)C1O (stereo not drawn) | L |
| c1cc2nnc1SCCCSc1ccc(nn1)SCCCS2 | H |
| N#CCN1CCn2c1nsc2=S | H |
| COC(=O)c1ccc(S)c(S(=O)(=O)Nc2n[nH]c(N)n2)c1 | H |
| N#Cc1c2c(c(N)oc1=O)C(c1ccccc1)CC(=O)N2 (stereo not drawn) | H |
| O=C(c1ccccc1)N(C(=O)c1ccccc1)c1nc(SCc2ccccc2)ns1 | H |
| CCN(CC)CCCCCCNc1cc(OC)cc2cccnc12 | M |
| CCCCCCNC(=O)Oc1ccc(/C(=C(\C)c2ccc(Cl)cc2)c2ccc(OCCN3CCCCC3)cc2)cc1 | M |
| O=C(CCCCCCN1CC(=O)N2[C@@H](c3ccc(Cl)c(Cl)c3)c3[nH]c4ccccc4c3C[C@H]2C1=O)NO | L |
| CC(C)=CCN1CC(C)C(=O)Nc2ccccc21 (stereo not drawn) | H |
| Nc1nc(Nc2ccccc2SSc2ccccc2Nc2nc(N)nc(C(Cl)(Cl)Cl)n2)nc(C(Cl)(Cl)Cl)n1 | M |
| CCCCCCCCCCCCCCCC(=O)N1CCCC1C(=O)NCC(=O)NC(Cc1ccccc1)C(=O)NC(C)C(=O)NC(CO)C(=O)NC(Cc1ccc(O)cc1)C(=O)NC(CCCCN)C(=O)NC(CC(C)C)C(=O)NC(CCCN=C(N)N)C(=O)N1CCCC1C(=O)NCC(N)=O (stereo not drawn) (Palmitoyl-PGFASYKLRPG-NH2; configuration not given here) | H |

====

- Test system: NCI-H460 lung
- run-description: NCI tumour cell line growth inhibition, 48 h
The following compounds are listed with their measured log10 TGI values.
measured-parameter: log10 TGI (log10 of the value in µM)

| smiles-repr | quantitative-result |
| --- | --- |
| CCN(CC)CCCCCCNc1cc(OC)cc2cccnc12 | 0.58 |
| O=C(/C=C/c1cccc(O)c1)c1cccc(-n2cc(-c3ccccc3)[nH]c2=O)c1 | 0.87 |
| c1ccc2cc(-c3n(Cc4ccc5ccccc5n4)c4ccccc4[n+]3Cc3ccc4ccccc4n3)ccc2c1 | 0.12 |
| CC(C)(O)CNc1nc(Nc2ccnc(C(F)(F)F)c2)nc(-c2cccc(C(F)(F)F)n2)n1 | 1.78 |
| COc1ccc2c(c1)c1c(n2CCN(C)C)-c2ccccc2CC1 | 1.49 |
| Cc1cc(N(CCCNc2ccnc3cc(Cl)ccc23)Cc2ccco2)nc(N2CCN(C)CC2)n1 | 1.06 |
